# Test Method Notes: FRG1 promoter luciferase signal modulators, primary screen, FRG1 inhibition for FSHD, cell-based, C2C12 myotubes, firefly/Renilla luciferase, luminescence (AID 1084)
# Protocol Conditions: higher = more signal, called active from +8 up or from −8 down
Label Y when z-score is at or above -0.6; otherwise label N.

A selection of reference data follows.
>  <Compound>
CCCCN1CC=CC23O[C@@H]4/C=C\CCC(C)OC(=O)C4[C@H]2C(=O)N(CCCCCO)[C@@H]3C1=O (some centres not stated)

>  <Cat>
Y

$$$$
>  <Compound>
CCOC(=O)C[C@H]1[C@H](OC(=O)Cc2ccc3c(c2)OCO3)[C@@H](NC(=O)c2ccc(-c3ccccc3)cc2)c2cc(OCCCO)ccc2N1C(=O)Cc1ccc(OC)cc1

>  <Cat>
N

$$$$

Exercise: Is the recorded value of z-score equal to or greater than -0.6 for this compound? CCC(CC)C(O)C1C=CC2C(=O)N(C)C(=O)C2N1Nc1ccccc1 (configuration not stated)
Key: Y
